measuredQuantity: logP

1) CCc1ccccc1O : 2.47
2) CCCCS : 2.28
3) FC(F)(F)Cl : 1.65
4) CNC(=O)Oc1ccccc1C1OCCO1 : 0.67
5) CCCCCC(=O)OCC(=O)C1(O)CCC2C3CCC4=CC(=O)CCC4(C)C3C(O)CC21C (stereo unspecified) : 4.48
6) O=C(O)Cc1cccc(F)c1 : 1.65
7) C[C@](N)(C(=O)O)c1cccc2ccccc12 : -0.22
8) CN(C)C(N(C)C)=S(I)c1ccccc1[N+](=O)[O-] (stereo unspecified) : -0.92
9) O=C(Nc1ncnc2c1ncn2[C@@H]1O[C@H](CO)[C@@H](O)[C@H]1O)c1ccccc1 : -0.1
10) O=C(O)c1ccc(I)cc1 : 3.02
11) COc1ccc(-c2cc3cnccc3[nH]2)c(OC)c1 : 3.5
12) O=[N+]([O-])c1cccnc1 : 0.6
13) Cc1ccncc1 : 1.22
14) C[C@]12CCC(=O)C=C1CC[C@@H]1[C@@H]2CC[C@@]2(C)[C@H]1CC[C@]2(C)O : 3.36
15) CC1(C)CCC(C)(C)O1 : 2.06
16) O=[N+]([O-])c1ccc(N2CCCCC2)cc1 : 3.26
17) c1ccc(N2CCCCC2)cc1 : 2.98
18) CCOC(=O)c1ccncc1 : 1.43
19) CCCCCCn1nnc2ccccc21 : 3.7
20) CC(=O)c1ccc(N2CCCCC2)cc1 : 3.13
21) C=CCSc1ccccc1 : 3.51
22) COc1cc2c(c3c1c(=O)c1ccccc1n3C)C=CC(C)(C)O2 : 3.67
23) FC(F)(F)Oc1ccccc1 : 3.17
24) CC(=S)Nc1ccccc1 : 1.71
25) NCCc1ccncc1 : -0.01
26) O=C(O)c1c(O)cccc1O : 2.2
27) CNn1cc(C(=O)O)c(=O)c2cc(F)c(N3CCN(C)CC3)cc21 : 0.23
28) CC(C)(C)C(=O)C(C)(C)C : 3
29) CC(C)Oc1ccc(CC#N)cc1 : 2.53
30) c1ccoc1 : 1.34
31) O=C(OCCOCCO)c1ccccc1 : 1.16
32) ClC(Cl)(Cl)C(c1ccccc1)c1ccccc1 : 4.87
33) Clc1ccc(-c2ccccc2Cl)c(Cl)c1 : 5.76
34) COC(=O)c1cccc(N2C(=O)CCC2=O)c1 : 0.36
35) O=C(NC(CO)C(O)c1ccc(I)cc1)C(Cl)Cl (stereo unspecified) : 2.22
36) NC(N)=O : -2.11
